Monocyte MFI values for the binders below.
measuredOn: T1, human CD33 (human, UniProt P20138 18-364)
T1 construct: CD33 on human primary dendritic cells, macrophages, monocytes and T cells and on CHO cells expressing recombinant human CD33; also called Siglec-3; hCD33
procedureDetails: flow cytometry, human primary monocytes;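 note: binding of anti-CD33 antibodies at 10 ug/ml to human primary monocytes, 1 h on ice, detected by PE-labelled secondary antibody, flow cytometry readout as mean fluorescence intensity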
Parameters: reference not given here

• C-88 (antibody, V domains shown, human IgG1) VH: QLQLQESGPGLVKPSETLSLTCTVSGGSISSSSYYWGWIRQPPGKGLEWIGSIYYSGSTYYNPSLKSRVTISVDTSKNQFSLKLSSVTAADTAVYYCARLPIYYDSSGYFDYHGMDVWGQGTTVTVSS VL: EIVLTQSPATLSLSPGERATLSCRASQSVSSYLAWYQQKPGQAPRLLIYDASNRATGIPARFSGSGSGTDFTLTISSLEPEDFAVYYCQQHANHPPTFGGGTKVEIK = 957
• C-72 (antibody, V domains shown, human IgG1) VH: QVQLVESGGGVVQPGRSLRLSCAASGFTFSSYGMHWVRQAPGKGLEWVAVIWYDGSNKYYADSVKGRFTISRDNSKNTLYLQMNSLRAEDTAVYYCAKEGGTYSDDFDLWGGGTLVTVSS VL: DIQMTQSPSSVSASVGDRVTITCRASQGISSWLAWYQQKPGKAPKLLIYAASSLQSGVPSRFSGSGSGTDFTLTISSLQPEDFATYYCQQASSFPLTFGGGTKVEIK = 118

// next item, Monocyte MFI requested
# input Which Monocyte MFI value is on record for C-39 (antibody, V domains shown, human IgG1) VH: QLQLQESGPGLVKPSETLSLTCTVSGGSISSSSYYWGWIRQPPGKGLEWIGSIYYSGSTYYNPSLKSRVTISVDTSKNQFSLKLSSVTAADTAVYYCAREGVRGMDVWGQGTTVTVSS VL: EIVLTQSPGTLSLSPGERATLSCRASQSVSSSYLAWYQQKPGQAPRLLIYGASSRATGIPDRFSGSGSGTDFTLTISRLEPEDFAVYYCQQFAFLPPTFGGGTKVEIK ?
# output 181

meta.source: patent US20220281976A1
